Hello, the source for this data is the supplement of paper PMC10065799, in case you need it.

- Measured on: EPHB1 (UniProt P54762)
- Sequence (P54762 whole entry, looked up): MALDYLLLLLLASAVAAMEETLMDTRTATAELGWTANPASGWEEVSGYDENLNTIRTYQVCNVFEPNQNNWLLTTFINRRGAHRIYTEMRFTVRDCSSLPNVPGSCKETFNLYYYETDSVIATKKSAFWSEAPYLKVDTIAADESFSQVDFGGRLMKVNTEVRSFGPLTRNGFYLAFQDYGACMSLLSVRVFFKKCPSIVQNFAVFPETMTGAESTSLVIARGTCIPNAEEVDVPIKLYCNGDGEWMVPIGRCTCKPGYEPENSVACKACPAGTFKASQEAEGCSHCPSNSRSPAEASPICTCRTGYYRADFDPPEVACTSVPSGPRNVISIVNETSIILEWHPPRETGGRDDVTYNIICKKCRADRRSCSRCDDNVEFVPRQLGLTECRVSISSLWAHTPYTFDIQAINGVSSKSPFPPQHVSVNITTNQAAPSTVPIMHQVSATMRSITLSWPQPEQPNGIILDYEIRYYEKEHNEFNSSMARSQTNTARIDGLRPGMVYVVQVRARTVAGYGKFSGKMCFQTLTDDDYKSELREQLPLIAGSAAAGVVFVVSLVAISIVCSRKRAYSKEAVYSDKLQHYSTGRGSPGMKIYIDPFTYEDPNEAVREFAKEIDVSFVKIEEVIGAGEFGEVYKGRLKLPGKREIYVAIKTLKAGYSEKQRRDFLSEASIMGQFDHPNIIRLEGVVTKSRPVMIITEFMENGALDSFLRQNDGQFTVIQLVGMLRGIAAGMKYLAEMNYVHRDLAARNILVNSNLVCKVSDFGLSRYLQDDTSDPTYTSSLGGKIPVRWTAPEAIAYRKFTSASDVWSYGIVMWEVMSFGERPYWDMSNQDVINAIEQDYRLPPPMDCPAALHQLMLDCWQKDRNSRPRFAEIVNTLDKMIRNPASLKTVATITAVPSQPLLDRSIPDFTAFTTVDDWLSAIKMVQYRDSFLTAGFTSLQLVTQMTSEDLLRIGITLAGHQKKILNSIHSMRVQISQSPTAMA
- Experimental details: phosphorylation enrichment, bacterial display (enrichment ratio); higher = better substrate or ligand; peptides without Tyr show the background;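 also: 11-residue human phosphosite peptides and single-mutation variants displayed on the E. coli surface, counted by deep sequencing, each peptide's frequency after selection divided by its frequency in the unselected input library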;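 also: frequency after pTyr selection over input frequency; kinase dosed for 20-30% of maximal phosphorylation in three min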

| Ordered residues | Measured on | phosphorylation enrichment |
| --- | --- | --- |
| KILGRYYETGS [PAX2_Y72] | EPHB1 (UniProt P54762) | 0.5 |
| LNAGAYSKVVE [PPT1_Y172_Q177E] | EPHB1 (UniProt P54762) | 0.431 |
| AEYGLYGAMVW [VSX2_Y222_R227W] | EPHB1 (UniProt P54762) | 1.33 |
| VLTSKYCGGGG [HBA1_Y141_R142C] | EPHB1 (UniProt P54762) | 0.474 |
| IVAEFYDNLPH [DEGS1_Y284_A280V_YF] | EPHB1 (UniProt P54762) | 0.517 |
| KVPELYEIHKE [BCR_Y554] | EPHB1 (UniProt P54762) | 0.93 |
| LEDDMYRKTCT [XPA_Y257] | EPHB1 (UniProt P54762) | 1.15 |
| NFCPGYNNFFN [USH2A_Y467_R464C_YF] | EPHB1 (UniProt P54762) | 0.393 |
